Source: PubChem BioAssay (NCI)

tested on: HCT-116 colon; assay: NCI tumour cell line growth inhibition, 48 h
Listed below: TGI values for each entry.
Give the quantity in µM, number only.

compound	measured.quantity	result.value
Cc1cn(C2CC(N=[N+]=[N-])C(CO[Si](C)(C)C(C)(C)C)O2)c(=O)[nH]c1=O (stereo not drawn)	TGI	29.6

We next turn to a different compound, shown below.
// field: TGI; key: CCSC1=CC(=O)c2ccccc2C1=O ; value = 2.84

---

system: RXF 393 renal; experiment: NCI tumour cell line growth inhibition, 48 h
measured.quantity: TGI (µM)
Give the quantity in µM, number only.

Worked set:
compound	TGI [µM]
CCS/C(Nc1ccccc1)=C(\C#N)C(=O)Nc1ccc(OC)cc1	7.86
CC(=O)N1CC(F)(F)c2c(Sc3ncc(N4CCC5(CC4)COC[C@H]5N)nc3N)cccc21	9.28
CC(C)[Si](OC1=CCCCCC12C(=O)N(C)c1ccccc12)(C(C)C)C(C)C (stereo not given)	21.8

TGI value, target or system RXF 393 renal, for CCCCCCCCCN1CCC(=O)C(C(=O)OC)C1 (stereo not given) : 32.7

TGI value, target or system RXF 393 renal, for N#Cc1nc(-c2ccccc2)oc1S(=O)(=O)N1CCOCC1 : 3.08

TGI value, target or system RXF 393 renal, for COC(=O)CCCCC/C(=C\C(=O)C(Cl)(Cl)Cl)OC : 41.1
